Assay: Vinpocetine, edaravone, oxiracetam in blood and brain tissue 0.5 h after intragastric administration, UPLC-MS (Example 6)
Format: in vivo
Conditions: rat, blood, oral, SD rats, intragastric 100 mg/kg, read-out: Oxiracetam content in the blood
measured-property: concentration at 0.5 h (µg/mL)
The reply should be a number in µg/mL, with the unit left off.

// NC(=O)CN1CC(O)CC1=O (stereo not shown) : concentration at 0.5 h value = 82.3

###

Experiment: Vinpocetine, edaravone, oxiracetam in blood and brain tissue 0.5 h after intragastric administration, UPLC-MS (Example 6)
Format: in vivo
Conditions: rat, brain, oral, SD rats, intragastric 100 mg/kg, read-out: Edaravone content in the brain tissue
measured-property: concentration at 0.5 h (ng/mL)
The reply should be a number in ng/mL, with the unit left off.

// "CC1=NN(c2ccccc2)C(=O)C1" : concentration at 0.5 h value = 128
